# target or test system: T1, recombinant human PAD4 (human, UniProt Q9UM07 1-663)
# T1 construct: also called rhPAD4; hPAD4
# T1 sequence (Q9UM07 whole entry): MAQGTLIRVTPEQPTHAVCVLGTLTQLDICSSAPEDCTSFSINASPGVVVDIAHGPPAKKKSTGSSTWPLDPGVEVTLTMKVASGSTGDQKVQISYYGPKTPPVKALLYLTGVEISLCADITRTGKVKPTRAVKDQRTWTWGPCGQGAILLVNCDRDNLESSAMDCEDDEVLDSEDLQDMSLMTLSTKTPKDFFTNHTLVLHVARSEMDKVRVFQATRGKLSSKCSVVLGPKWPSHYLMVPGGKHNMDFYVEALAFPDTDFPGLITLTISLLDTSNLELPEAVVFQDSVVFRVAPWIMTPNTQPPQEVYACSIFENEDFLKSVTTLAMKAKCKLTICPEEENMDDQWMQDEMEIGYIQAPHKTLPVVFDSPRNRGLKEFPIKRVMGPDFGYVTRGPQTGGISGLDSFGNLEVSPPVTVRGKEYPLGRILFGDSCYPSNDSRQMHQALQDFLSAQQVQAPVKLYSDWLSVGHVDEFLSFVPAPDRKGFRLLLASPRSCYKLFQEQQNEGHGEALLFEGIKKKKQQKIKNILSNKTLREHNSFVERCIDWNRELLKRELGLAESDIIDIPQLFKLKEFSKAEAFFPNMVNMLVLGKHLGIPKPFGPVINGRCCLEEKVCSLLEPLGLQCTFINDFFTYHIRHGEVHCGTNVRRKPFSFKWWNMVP
# assay notes: SPR 37 C, captured antibody, PAD4 analyte, 2 mM EDTA
experimental endpoint: koff (s⁻¹)
Report only the number, with the unit s⁻¹ understood.

Query: Name the reported koff value associated with the binder hz20-9 (antibody, V domains shown, light constant region not tied to this antibody) VH: QVQLVQSGAEVKKPGASVKVSCKASGYTFTNYGISWVRQAPGQGLEWMGEIYPRSGNTYHNEKFKDRVTMTTDKSTSTAYMELRSLRSDDTAVYYCARSMITTRYWYFDVWGKGTTVTVSS VL: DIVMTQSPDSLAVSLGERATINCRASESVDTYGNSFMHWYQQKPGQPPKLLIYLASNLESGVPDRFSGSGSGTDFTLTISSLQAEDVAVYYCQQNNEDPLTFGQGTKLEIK
Reply: 0.00018

Query: What value of koff has been reported for the following binder? hz20-3 (antibody, V domains shown, light constant region not tied to this antibody) VH: EVQLVQSGAEVKKPGASVKVSCKASGYTFTNYGISWVRQAPGQGLEWMGEIYPRSGNTYHNEKFKDRVTMTADKSTSTAYMELRSLRSDDTAVYFCARSMITTRYWYFDVWGQGTLVTVSS VL: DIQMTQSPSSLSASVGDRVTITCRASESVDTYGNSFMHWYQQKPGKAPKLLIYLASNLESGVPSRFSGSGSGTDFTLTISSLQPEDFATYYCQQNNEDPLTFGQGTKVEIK
Reply: 0.00031

Query: Entry hz20-14 (antibody, V domains shown, light constant region not tied to this antibody) VH: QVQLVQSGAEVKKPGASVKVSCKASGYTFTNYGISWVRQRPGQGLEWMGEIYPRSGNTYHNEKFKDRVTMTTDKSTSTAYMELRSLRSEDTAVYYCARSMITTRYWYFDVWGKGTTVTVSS VL: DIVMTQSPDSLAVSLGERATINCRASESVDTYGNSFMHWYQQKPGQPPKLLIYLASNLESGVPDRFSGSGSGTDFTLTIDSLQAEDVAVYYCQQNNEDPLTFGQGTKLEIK has what koff?
Reply: 0.00018

Query: Using the record for hz20-7 (antibody, IgG1, V domains shown, also called clone 20-based hz20-7 antibody) VH: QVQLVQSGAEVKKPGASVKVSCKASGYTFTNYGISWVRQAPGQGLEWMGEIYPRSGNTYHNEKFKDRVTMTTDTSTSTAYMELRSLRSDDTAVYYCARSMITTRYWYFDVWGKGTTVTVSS VL: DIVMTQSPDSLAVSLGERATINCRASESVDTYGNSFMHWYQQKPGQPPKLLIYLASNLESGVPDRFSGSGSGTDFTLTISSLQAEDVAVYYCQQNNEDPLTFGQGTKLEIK , report its koff.
Reply: 0.00021

Query: Could you tell me which koff is on file for hz20-12 (antibody, V domains shown, light constant region not tied to this antibody) VH: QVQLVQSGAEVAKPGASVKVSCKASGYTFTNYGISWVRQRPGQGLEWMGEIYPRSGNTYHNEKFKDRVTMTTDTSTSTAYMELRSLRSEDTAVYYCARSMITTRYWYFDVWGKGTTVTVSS VL: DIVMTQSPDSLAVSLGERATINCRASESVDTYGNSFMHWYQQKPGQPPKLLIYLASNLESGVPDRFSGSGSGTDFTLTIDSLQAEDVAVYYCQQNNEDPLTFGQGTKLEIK ?
Reply: 0.00021

Query: I would be grateful if you could share the reported koff for hz20-13 (antibody, V domains shown, light constant region not tied to this antibody) VH: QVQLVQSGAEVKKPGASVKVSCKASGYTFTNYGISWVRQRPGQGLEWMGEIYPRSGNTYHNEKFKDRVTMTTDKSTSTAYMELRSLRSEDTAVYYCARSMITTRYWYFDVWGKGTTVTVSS VL: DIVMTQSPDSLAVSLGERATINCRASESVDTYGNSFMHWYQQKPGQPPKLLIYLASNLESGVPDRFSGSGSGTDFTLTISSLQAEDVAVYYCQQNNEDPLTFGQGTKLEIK .
Reply: 0.00018

Query: Field request: koff | item: hz20-8 (antibody, V domains shown, light constant region not tied to this antibody) VH: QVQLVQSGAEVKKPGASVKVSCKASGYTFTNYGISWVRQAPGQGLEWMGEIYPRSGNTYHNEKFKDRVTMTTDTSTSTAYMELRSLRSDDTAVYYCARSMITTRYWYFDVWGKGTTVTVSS VL: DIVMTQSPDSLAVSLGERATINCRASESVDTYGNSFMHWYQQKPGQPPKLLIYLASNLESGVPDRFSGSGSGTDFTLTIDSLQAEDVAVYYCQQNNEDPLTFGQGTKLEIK
Reply: 0.00022

Query: Which koff value is on record for hz13-1 (antibody, V domains shown, light constant region not tied to this antibody) VH: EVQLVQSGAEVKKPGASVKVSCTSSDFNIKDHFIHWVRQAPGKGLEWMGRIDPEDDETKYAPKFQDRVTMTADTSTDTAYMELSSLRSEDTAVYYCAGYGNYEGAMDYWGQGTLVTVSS VL: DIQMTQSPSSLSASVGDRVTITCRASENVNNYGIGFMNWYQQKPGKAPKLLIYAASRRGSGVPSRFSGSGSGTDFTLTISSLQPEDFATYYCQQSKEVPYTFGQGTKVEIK ?
Reply: 0.0004

Query: // lookup koff for hz20-2 (antibody, IgG1, V domains shown, also called clone 20-based hz20-2 antibody) VH: QVQLVQSGAEVKKPGASVKVSCKASGYTFTNYGISWVRQAPGQGLEWMGEIYPRSGNTYHNEKFKDRVTMTTDTSTSTAYMELRSLRSDDTAVYYCARSMITTRYWYFDVWGQGTLVTVSS VL: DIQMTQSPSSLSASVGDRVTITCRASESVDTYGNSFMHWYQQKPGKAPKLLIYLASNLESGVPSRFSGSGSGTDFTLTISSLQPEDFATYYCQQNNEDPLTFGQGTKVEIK
Reply: 0.00032

Query: I have this binder here, hz13-3 (antibody, V domains shown, light constant region not tied to this antibody) VH: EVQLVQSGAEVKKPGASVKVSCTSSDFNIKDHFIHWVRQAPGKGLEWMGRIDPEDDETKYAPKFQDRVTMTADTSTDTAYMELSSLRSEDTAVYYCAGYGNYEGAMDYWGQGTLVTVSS VL: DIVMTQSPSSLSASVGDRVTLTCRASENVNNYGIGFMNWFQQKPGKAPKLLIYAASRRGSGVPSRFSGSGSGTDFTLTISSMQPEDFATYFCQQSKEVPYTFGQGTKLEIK , and I need its recorded koff.
Reply: 0.00021

Query: For the binder shown here, hz20-10 (antibody, V domains shown, light constant region not tied to this antibody) VH: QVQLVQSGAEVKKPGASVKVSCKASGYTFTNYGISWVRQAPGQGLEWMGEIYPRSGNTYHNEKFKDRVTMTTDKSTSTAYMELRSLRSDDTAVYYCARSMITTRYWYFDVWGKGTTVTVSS VL: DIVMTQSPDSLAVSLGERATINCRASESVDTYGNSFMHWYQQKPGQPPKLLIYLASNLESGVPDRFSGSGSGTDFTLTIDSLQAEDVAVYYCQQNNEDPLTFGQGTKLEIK , give the reported koff.
Reply: 0.00018
